Target: hα7-wt nAChR (Homo sapiens)
Construct: expressed in transfected cells
Sequence (P36544 23-502): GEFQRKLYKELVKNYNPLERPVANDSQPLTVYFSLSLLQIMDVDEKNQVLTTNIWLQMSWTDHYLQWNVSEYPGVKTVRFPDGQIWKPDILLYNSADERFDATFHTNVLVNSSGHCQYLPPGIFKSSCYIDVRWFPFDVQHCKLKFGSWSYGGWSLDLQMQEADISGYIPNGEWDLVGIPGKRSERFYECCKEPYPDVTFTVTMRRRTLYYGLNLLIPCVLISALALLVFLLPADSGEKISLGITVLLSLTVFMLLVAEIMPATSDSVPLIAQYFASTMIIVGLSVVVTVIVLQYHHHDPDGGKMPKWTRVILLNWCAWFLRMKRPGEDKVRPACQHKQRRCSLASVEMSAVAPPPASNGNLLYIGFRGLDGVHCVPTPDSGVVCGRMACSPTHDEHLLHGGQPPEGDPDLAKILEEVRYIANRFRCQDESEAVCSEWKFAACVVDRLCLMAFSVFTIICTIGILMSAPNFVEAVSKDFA
Assay: Ca2+ flux imaging (FDSS) (Protocol B), PAM activity with choline as agonist
Type: cell-based
Settings: "<5" = no top plateau at maximal concentration
Attribute: pEC50
Here pEC50 is given on a logarithmic scale as minus log10 of the concentration in mol/L.

Cc1cc(-c2nc(Nc3ccc4c(c3)OC(F)(F)O4)nn2CC(=O)NC2CCC2)ccn1 [Compound 205]; 6.10
CC(C)NC(=O)CCn1nc(Nc2ccc(F)c(C(F)(F)F)c2)nc1-c1ccncc1 [Compound 136]; 5.50
COc1ccc(Cl)cc1Nc1nc(-c2ccc3c(c2)OCCO3)n(CCC(=O)N(C)C)n1 [Compound 197]; 6.90
COc1ccc(Nc2nc(-c3ccnc(C4CC4)c3)n(CCF)n2)cc1C(F)(F)F [Compound 44]; 5.90

Below: the item to evaluate.
Return value of pEC50 for input CC(C)c1ccc(-c2nc(Nc3ccc(F)cc3)nn2CCO)cn1 [Compound 169] , no commentary.
5.50
